Target: platelet derived growth factor PDGF-BB (UniProt P01127 82-190)
Sequence (P01127 82-190 limits assumed): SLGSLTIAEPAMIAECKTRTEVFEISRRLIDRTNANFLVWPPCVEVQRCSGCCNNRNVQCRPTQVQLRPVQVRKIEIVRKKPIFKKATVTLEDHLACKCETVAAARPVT
Experiment: cell-based or functional assay
Positions of bridges follow the written chain, without caps; N, C: chain ends. No end group written: not given here.
RECORDED METRIC: IC50, PDGFR-Y-P (µM)
Quick note: give the figure in µM, leave out the unit.

Example results:
- BINDER: "GFB-134 (designed binder, also: 3 GDGY loops and 1 GDDY loop on But-Calix scaffold, linker to a chain's N/C-terminus via 3-aminomethyl-5-aminobenzamide) peptide 1: GDGY peptide 2: GDDY"
  RESULT UNITS: "µM"
  IC50, PDGFR-Y-P: 1.9
- BINDER: "GDDY (designed binder, linker N-C via 3‑aminomethyl‑5‑aminobenzamide; also: four loops on But-Calix calix[4]arene scaffold) [GFB-122]"
  RESULT UNITS: "µM"
  IC50, PDGFR-Y-P: 1.7

Now for the binder whose IC50, PDGFR-Y-P we want.
The binder identified as GDDD (designed binder, linker N-C via 3‑aminomethyl‑5‑aminobenzamide; also: four loops on But-Calix calix[4]arene scaffold) [GFB-106] registered its IC50, PDGFR-Y-P at 8
